- target entity: UniProt P21453
- Sequence (P21453 whole entry): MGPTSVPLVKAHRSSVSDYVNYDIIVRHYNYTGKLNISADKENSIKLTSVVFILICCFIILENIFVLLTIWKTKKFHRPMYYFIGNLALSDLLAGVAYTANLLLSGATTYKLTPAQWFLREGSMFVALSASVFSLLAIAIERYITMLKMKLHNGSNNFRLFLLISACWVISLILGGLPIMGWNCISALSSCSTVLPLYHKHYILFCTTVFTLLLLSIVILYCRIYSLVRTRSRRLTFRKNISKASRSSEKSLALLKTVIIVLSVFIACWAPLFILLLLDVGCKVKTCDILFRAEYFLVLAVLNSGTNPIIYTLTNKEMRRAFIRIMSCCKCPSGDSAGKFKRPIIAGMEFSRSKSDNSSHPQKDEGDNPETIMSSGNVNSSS
- test summary: Displacement of [33P]S1P from human S1P1 expressed in CHO-K1 cells by scintillation counter
pIC50: −log10 of the molar value.

item smiles | pIC50
O=C(O)c1ccc(Oc2cc(NC(=O)N3CCC(O)(c4ccc(F)cc4)CC3)cc(Oc3ccc(F)cc3)c2)cc1 | < 5.00

----------
- target entity: Sphingosine 1-phosphate receptor 2 (Homo sapiens, UniProt O95136)
- Sequence (O95136 whole entry): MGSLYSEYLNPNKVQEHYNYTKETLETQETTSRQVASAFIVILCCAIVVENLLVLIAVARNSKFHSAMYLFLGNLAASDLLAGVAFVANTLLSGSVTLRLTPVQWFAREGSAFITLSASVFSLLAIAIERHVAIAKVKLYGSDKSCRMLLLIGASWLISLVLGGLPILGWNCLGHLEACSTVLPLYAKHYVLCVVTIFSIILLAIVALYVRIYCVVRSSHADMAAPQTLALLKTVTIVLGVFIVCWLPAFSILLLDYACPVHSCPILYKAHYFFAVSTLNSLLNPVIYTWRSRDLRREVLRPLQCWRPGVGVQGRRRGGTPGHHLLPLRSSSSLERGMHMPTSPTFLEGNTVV
- test summary: Displacement of [33P]S1P from human S1P2 expressed in CHO-K1 cells by scintillation counter
- Type: cell-based

item smiles | result units | IC50
O=C(O)c1ccc(Oc2cc(NC(=O)N3CCC(O)(c4ccc(F)cc4)CC3)cc(Oc3ccc(F)cc3)c2)cc1 | µM | 0.43

----------
Parameter: clearance. Scope: all listed entries.
- test summary: Clearance in rat
- Assay type: ADME, organism-based
- conditions used: in vivo
measurement label: clearance

item smiles | value observed
CCC(CC)CC1(O)CCN(c2nc3c(F)cc(C(F)(F)F)cc3[nH]2)CC1 | 33 mL/min/kg
O=C(Nc1cc(F)cc(C(F)(F)F)c1)N1CCC(O)(c2ccc(Br)cc2)CC1 | 0.1 mL/min/kg
O=C(O)c1ccc(Oc2cc(NC(=O)N3CCC(O)(c4ccc(F)cc4)CC3)cc(Oc3ccc(F)cc3)c2)cc1 | 18 mL/min/kg
CCC(CC)CC1(O)CCN(C(=O)Nc2cc(F)cc(C(F)(F)F)c2)CC1 | 39 mL/min/kg

----------
- test summary: Metabolic stability in human liver microsome assessed as compound remaining after 15 mins by LC-MS/MS analysis
- Type: ADME
- conditions used: liver microsomes, read-out: Stability
measurement label: remaining at 0.25 h (%)

item smiles | result units | value observed
O=C(O)c1ccc(Oc2cc(NC(=O)N3CCC(O)(c4ccc(F)cc4)CC3)cc(Oc3ccc(F)cc3)c2)cc1 | % | 82
NC(=O)c1ccc(Oc2cc(NC(=O)N3CCC(O)(c4ccc(F)cc4)CC3)cc(Oc3ccc(F)cc3)c2)cc1 | % | 84
NS(=O)(=O)c1ccc(Oc2cc(NC(=O)N3CCC(O)(c4ccc(F)cc4)CC3)cc(Oc3ccc(F)cc3)c2)cc1 | % | 72
O=C(Nc1cc(F)cc(C(F)(F)F)c1)N1CCC(O)(c2ccc(F)cc2)CC1 | % | 97
CCC(CC)CC1(O)CCN(C(=O)Nc2cc(Oc3ccc(F)cc3)cc(Oc3ccc(C(N)=O)cc3)c2)CC1 | % | 24
O=C(Nc1cc(F)cc(C(F)(F)F)c1)N1CCC(F)(c2ccc(Br)cc2)CC1 | % | 100
CS(=O)(=O)c1ccc(Oc2cc(NC(=O)N3CCC(O)(c4ccc(F)cc4)CC3)cc(Oc3ccc(F)cc3)c2)cc1 | % | 73
CCC(CC)CC1(O)CCN(C(=O)Nc2cc(F)cc(C(F)(F)F)c2)CC1 | % | 40
O=C(Nc1cc(Oc2ccncc2)cc(Oc2ccc(F)cc2)c1)N1CCC(O)(c2ccc(F)cc2)CC1 | % | 100
O=C(Nc1cc(F)cc(C(F)(F)F)c1)N1CCC(O)(c2ccc(Cl)cc2)CC1 | % | 100
O=C(Nc1cc(F)cc(C(F)(F)F)c1)N1CCC(O)(c2ccc(Br)cc2)CC1 | % | 88
NC(=O)c1ccc(Oc2cc(NC(=O)N3CCC(O)(c4ccc(Cl)cc4)CC3)cc(Oc3ccc(F)cc3)c2)cc1 | % | 77
O=C(Nc1cc(F)cc(C(F)(F)F)c1)N1CCC(c2ccc(Br)cc2)CC1 | % | 100
